- Tested on: PBMC
- protocol: Cytotoxicity against human PBMC cells measured after 72 hrs by Celltiter-Glo assay
- Type: ADME, cell-based
pIC50: −log10 of the molar value.
recorded-metric: pIC50

Example results:
| chemical-string | assay-target | test-value |
| --- | --- | --- |
| CO[C@@H]1[C@H](N(C)c2ncc(-c3c[nH]c4ccc(F)cc34)s2)C[C@H]2O[C@]1(C)n1c3ccccc3c3c4c(c5c6cc(Br)ccc6n2c5c31)C(=O)NC4 | PBMC | < 5.00 |
| CO[C@@H]1[C@H](N(C)c2ncc(-c3c[nH]c4ccc(Cl)cc34)s2)C[C@H]2O[C@]1(C)n1c3ccccc3c3c4c(c5c6cc(Cl)ccc6n2c5c31)C(=O)NC4 | PBMC | < 5.00 |
| CO[C@@H]1[C@H](N(C)c2ncc(-c3c[nH]c4ccc(Br)cc34)s2)C[C@H]2O[C@]1(C)n1c3ccccc3c3c4c(c5c6ccccc6n2c5c31)C(=O)NC4 | PBMC | < 5.00 |
| COc1ccc2[nH]cc(-c3cnc(N(C)[C@@H]4C[C@H]5O[C@@](C)([C@@H]4OC)n4c6ccccc6c6c7c(c8c9ccccc9n5c8c64)C(=O)NC7)s3)c2c1 | PBMC | < 5.00 |

Consider the additional compound presented here.
Tell us which pIC50 value is on record for CO[C@@H]1[C@H](N(C)c2ncc(-c3c[nH]c4ccc(Br)cc34)s2)C[C@H]2O[C@]1(C)n1c3ccccc3c3c4c(c5c6cc(Br)ccc6n2c5c31)C(=O)NC4 < 5.00

* * *

- Test system: K562
- protocol: Antiproliferative activity against human K562 cells measured after 72 hrs by Celltiter-Glo assay
- Assay type: functional, cell-based
- test-context: K562, 72 h
recorded-metric: IC50

Example results:
| chemical-string | test-value |
| --- | --- |
| CO[C@@H]1[C@H](N(C)c2ncc(-c3c[nH]c4ccc(Br)cc34)s2)C[C@H]2O[C@]1(C)n1c3ccccc3c3c4c(c5c6cc(Cl)ccc6n2c5c31)C(=O)NC4 | > 10 µM |
| CO[C@@H]1[C@H](N(C)c2ncc(-c3c[nH]c4ccc(Cl)cc34)s2)C[C@H]2O[C@]1(C)n1c3ccccc3c3c4c(c5c6ccccc6n2c5c31)C(=O)NC4 | > 10 µM |

Consider the additional molecule presented here.
Tell us which IC50 value is on record for CO[C@@H]1[C@H](N(C)c2ncc(-c3c[nH]c4ccc(Br)cc34)s2)C[C@H]2O[C@]1(C)n1c3ccccc3c3c4c(c5c6cc(Br)ccc6n2c5c31)C(=O)NC4 > 10 µM
